biological target: PI3Kδ (Homo sapiens, UniProt O00329); construct: made in house; assay: Enzymatic activity of PI3K isoforms, TR-FRET assay (PIP3 formation); format: biochemical; details: PI3Kδ; TR-FRET, 2×Km ATP, 10 μM PIP2; read-out: IC50
Sequence (O00329 whole entry, canonical isoform): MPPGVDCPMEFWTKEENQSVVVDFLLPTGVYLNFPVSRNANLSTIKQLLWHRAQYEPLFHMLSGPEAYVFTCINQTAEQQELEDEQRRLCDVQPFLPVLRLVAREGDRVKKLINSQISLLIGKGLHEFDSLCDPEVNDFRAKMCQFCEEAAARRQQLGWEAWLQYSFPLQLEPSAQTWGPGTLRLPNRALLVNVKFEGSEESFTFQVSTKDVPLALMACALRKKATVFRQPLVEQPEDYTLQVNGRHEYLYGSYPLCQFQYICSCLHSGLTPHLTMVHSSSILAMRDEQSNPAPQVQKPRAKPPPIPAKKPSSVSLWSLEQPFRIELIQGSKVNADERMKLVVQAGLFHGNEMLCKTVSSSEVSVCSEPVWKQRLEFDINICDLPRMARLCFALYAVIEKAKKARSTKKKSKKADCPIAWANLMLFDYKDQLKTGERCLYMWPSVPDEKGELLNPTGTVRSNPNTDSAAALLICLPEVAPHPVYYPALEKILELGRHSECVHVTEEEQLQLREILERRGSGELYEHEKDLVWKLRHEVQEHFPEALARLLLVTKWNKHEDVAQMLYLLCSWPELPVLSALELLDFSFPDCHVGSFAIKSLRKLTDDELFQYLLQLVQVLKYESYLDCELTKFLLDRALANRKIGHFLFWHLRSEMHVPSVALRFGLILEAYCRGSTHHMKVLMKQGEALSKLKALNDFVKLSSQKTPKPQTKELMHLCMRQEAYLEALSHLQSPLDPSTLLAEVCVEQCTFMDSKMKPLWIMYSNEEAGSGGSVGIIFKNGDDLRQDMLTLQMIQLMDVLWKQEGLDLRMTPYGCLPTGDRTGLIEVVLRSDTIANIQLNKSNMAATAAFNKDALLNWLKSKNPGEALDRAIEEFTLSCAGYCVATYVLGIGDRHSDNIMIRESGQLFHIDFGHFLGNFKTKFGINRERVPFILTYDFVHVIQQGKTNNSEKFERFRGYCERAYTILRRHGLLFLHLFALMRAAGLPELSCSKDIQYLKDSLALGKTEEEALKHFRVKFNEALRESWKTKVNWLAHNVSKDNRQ
Sequence (P27986 whole entry partner, canonical isoform): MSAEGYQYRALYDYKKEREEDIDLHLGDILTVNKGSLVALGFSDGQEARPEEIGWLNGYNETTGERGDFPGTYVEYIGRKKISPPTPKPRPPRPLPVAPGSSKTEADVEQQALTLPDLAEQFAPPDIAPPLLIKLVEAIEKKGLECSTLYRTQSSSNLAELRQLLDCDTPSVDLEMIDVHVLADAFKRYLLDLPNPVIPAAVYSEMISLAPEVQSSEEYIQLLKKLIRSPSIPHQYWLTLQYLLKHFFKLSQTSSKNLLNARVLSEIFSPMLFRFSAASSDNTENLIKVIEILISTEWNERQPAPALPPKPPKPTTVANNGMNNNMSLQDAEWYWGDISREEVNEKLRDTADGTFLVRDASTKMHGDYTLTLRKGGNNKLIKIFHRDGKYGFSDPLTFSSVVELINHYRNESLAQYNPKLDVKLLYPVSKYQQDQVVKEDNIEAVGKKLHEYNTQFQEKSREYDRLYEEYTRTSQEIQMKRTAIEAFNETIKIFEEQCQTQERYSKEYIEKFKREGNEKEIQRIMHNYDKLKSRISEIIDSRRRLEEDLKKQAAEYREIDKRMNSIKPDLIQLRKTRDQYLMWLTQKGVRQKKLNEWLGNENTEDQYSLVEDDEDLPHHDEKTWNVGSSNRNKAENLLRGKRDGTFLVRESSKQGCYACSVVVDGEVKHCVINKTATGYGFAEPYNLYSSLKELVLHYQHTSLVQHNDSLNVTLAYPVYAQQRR
compounds and their reported IC50

// below: answered compounds
compound	result
CC(Nc1nc(N)nc(N)c1C#N)c1nc2ccc(F)cc2c(=O)n1-c1cccc(C#N)c1 (single isomer, unassigned) [Compound 13a]	10 to 50 nM
CC(Nc1nc(N)nc(N)c1C#N)c1nc2c(C#N)cccc2c(=O)n1-c1ccccc1 (single isomer, unassigned) [Compound 122a]	1 to 10 nM
Cc1c(F)ccc(-n2c(C(C)Nc3nc(N)nc(N)c3C#N)nc3cccc(Cl)c3c2=O)c1C (single isomer, unassigned) [Compound 203a-1]	1 to 10 nM
CCc1cccc2c(=O)n(-c3cc(F)cc(F)c3)c(C(C)Nc3nc(N)nc(N)c3C#N)nc12 (single isomer, unassigned) [Compound 103a]	10 to 50 nM
CC(Nc1nc(N)nc(N)c1C#N)c1nc2c(C#N)cccc2c(=O)n1-c1cccc(C(F)F)c1 (single isomer, unassigned) [Compound 160a]	1 to 10 nM
COc1cc(F)cc(-n2c(C(C)Nc3nc(N)nc(N)c3C#N)nc3cccc(Cl)c3c2=O)c1 (single isomer, unassigned) [Compound 192a]	1 to 10 nM
CC(C)CC(Nc1nc(N)nc(N)c1C#N)c1nc2cccc(Cl)c2c(=O)n1-c1cc(F)cc(F)c1 (single isomer, unassigned) [Compound 163a]	1 to 10 nM
CCC(Nc1nc(N)nc(N)c1C#N)c1nc2ccc(Cl)c(F)c2c(=O)n1-c1cc(F)cc(F)c1 (single isomer, unassigned) [Compound 86a]	> 50 nM
COc1cc(-n2c(C(C)Nc3nc(N)nc(N)c3C#N)nc3cccc(Cl)c3c2=O)ccc1F (single isomer, unassigned) [Compound 186a]	1 to 10 nM
Cc1cccc2nc(C(C)Nc3nc(N)nc(N)c3C#N)n(-c3ccccc3)c(=O)c12 (single isomer, unassigned) [Compound 23a]	< 1 nM

(Q) Fill in IC50 for record Cc1c(F)cccc1-n1c(C(C)Nc2nc(N)nc(N)c2C#N)nc2cccc(Cl)c2c1=O (single isomer, unassigned) [Compound 199a-1]
(A) < 1 nM

(Q) Fill in IC50 for record COc1cc(OC)cc(-n2c(C(C)Nc3nc(N)nc(N)c3C#N)nc3cccc(Cl)c3c2=O)c1 (single isomer, unassigned) [Compound 51a]
(A) 1 to 10 nM

###

compounds and their reported half-life at 2 μM
experiment: Hepatocyte stability, 1% final DMSO, 2 μM substrate (t1/2^a); assay type: in vitro ADME; conditions: human, cryopreserved hepatocytes, TA with 1% final DMSO, 2 μM substrate, samples at 0, 1, 2, 4 hours; read-out: human hepatocyte t½^a

(Q) Fill in half-life at 2 μM for record Cc1ccc(Cl)c2c(=O)n(-c3cc(F)cc(F)c3)c(C(C)Nc3nc(N)nc(N)c3C#N)nc12 (single isomer, unassigned) [Compound 73a]
(A) 180 to 360 min

(Q) Fill in half-life at 2 μM for record Cc1cccc2nc(C(C)Nc3nc(N)nc(N)c3C#N)n(-c3cc(F)cc(F)c3)c(=O)c12 (single isomer, unassigned) [Compound 18a]
(A) 180 to 360 min

(Q) Fill in half-life at 2 μM for record `C[C@H](Nc1nc(N)nc(N)c1C#N)c1nc2cccc(Cl)c2c(=O)n1-c1cc(F)cc(F)c1`
(A) 360 to 600 min

(Q) Fill in half-life at 2 μM for record CC(Nc1nc(N)nc(N)c1C#N)c1nc2cccc(Cl)c2c(=O)n1-c1cc(F)cc(Cl)c1 (single isomer, unassigned) [Compound 43a]
(A) 180 to 360 min

###

Assay: Hepatocyte stability, 0.01% final DMSO, 1 μM substrate (t1/2^b)
Format: in vitro ADME
Conditions: human, hepatocytes, TA with 0.01% final DMSO; human hepatocytes; read-out: t1/2^b
Method: Alternatively, assay reagents and/or conditions can be modified in determining the inhibitory activities to PI3K isomers. In additional studies, similar assay using TA and 0.01% final DMSO concentration were incubated with 1 million hepatocytes/mL at 1 μM substrate in duplicate. The incubation was carried out at 37° C. with 5% CO2 and saturating humidity.
compounds and their reported half-life at 1 μM

// below: answered compounds
compound	half-life at 1 μM
C[C@H](Nc1ncnc(N)c1C#N)c1nc2cccc(Cl)c2c(=O)n1-c1cc(F)cc(F)c1 [Z, reference compound]	< 2 h
CC(Nc1nc(N)nc(N)c1C#N)c1nc2cccc(Cl)c2c(=O)n1-c1ccccc1 (single isomer, unassigned) [Compound 49a]	> 4 h

(Q) Fill in half-life at 1 μM for record `C[C@H](Nc1nc(N)nc(N)c1C#N)c1nc2cccc(Cl)c2c(=O)n1-c1cc(F)cc(F)c1`
(A) > 1 h

###

compounds and their reported half-life at 1 μM
assay: Hepatocyte stability, 0.01% final DMSO, 1 μM substrate (t1/2^b); format: in vitro ADME; details: human, hepatocytes, TA with 0.01% final DMSO, 1 μM substrate, samples at 0, 1, 3, 6 hours; read-out: human hepatocyte t½^b

// below: answered compounds
compound	result
CC(Nc1nc(N)nc(N)c1C#N)c1nc2c(Cl)cc(F)cc2c(=O)n1-c1cc(F)cc(F)c1 (single isomer, unassigned) [Compound 89a]	6 to 10 h
COCC(Nc1nc(N)nc(N)c1C#N)c1nc2cccc(Cl)c2c(=O)n1-c1cc(F)cc(F)c1 (single isomer, unassigned) [Compound 135a]	1 to 3 h
CC(Nc1nc(N)nc(N)c1C#N)c1nc2c(Cl)ccc(F)c2c(=O)n1-c1cc(F)cc(F)c1 (single isomer, unassigned) [Compound 67a]	1 to 3 h
CC(Nc1nc(N)nc(N)c1C#N)c1nc2c(C(F)F)cccc2c(=O)n1-c1ccccc1 (single isomer, unassigned) [Compound 56a]	6 to 10 h
CC(Nc1nc(N)nc(N)c1C#N)c1nc2c(C#N)cccc2c(=O)n1-c1ccccc1 (single isomer, unassigned) [Compound 122a]	> 10 h
CC(Nc1nc(N)nc(N)c1C#N)c1nc2c(F)ccc(F)c2c(=O)n1-c1cccc(C#N)c1 (single isomer, unassigned) [Compound 149a]	6 to 10 h
CCC(Nc1nc(N)nc(N)c1C#N)c1nc2ccc(F)cc2c(=O)n1-c1cc(F)cc(F)c1 (single isomer, unassigned) [Compound 26a]	> 10 h
CC(Nc1nc(N)nc(N)c1C#N)c1nc2cccc(Cl)c2c(=O)n1-c1cccc(C(F)F)c1 (single isomer, unassigned) [Compound 106a]	1 to 3 h
CC(Nc1nc(N)nc(N)c1Cl)c1nc2c(F)ccc(Cl)c2c(=O)n1-c1ccccc1 (single isomer, unassigned) [Compound 127a]	1 to 3 h
CC(Nc1nc(N)nc(N)c1C(N)=O)c1nc2cccc(Cl)c2c(=O)n1-c1cc(F)cc(F)c1 (single isomer, unassigned) [Compound 90a]	3 to 6 h

(Q) Fill in half-life at 1 μM for record CC(Nc1nc(N)nc(N)c1C#N)c1nc2c(C#N)cccc2c(=O)n1-c1cccc(C(F)F)c1 (single isomer, unassigned) [Compound 160a]
(A) 3 to 6 h

(Q) Fill in half-life at 1 μM for record CC(Nc1nc(N)nc(N)c1C#N)c1nc2c(Cl)cccc2c(=O)n1-c1cc(F)cc(F)c1 (single isomer, unassigned) [Compound 71a]
(A) 1 to 3 h

###

Target: PI3Kδ (Homo sapiens, UniProt O00329)
Construct: made in house
Assay: Enzymatic activity of PI3K isoforms, TR-FRET assay (PIP3 formation)
Format: biochemical
Settings: PI3Kδ; TR-FRET, 2×Km ATP, 10 μM PIP2; read-out: IC50
Procedure: Enzymatic Activity of PI3K Isoforms The TR-FRET assay was used to monitor formation of the product 3,4,5-inositol triphosphate molecule (PIP3) as it competed with fluorescently labeled PIP3 for binding to the GRP-1 pleckstrin homology domain protein. […] Data are normalized based on a positive (1 uM wortmanin) and negative (DMSO) controls. The α, β, δ, and γ IC50 values were calculated from the fit of the dose-response curves to a four-parameter equation. […]
measure: IC50

// below: answered compounds
compound	result
CC(Nc1nc(N)nc(N)c1C#N)c1nc2cccc(F)c2c(=O)n1-c1cc(F)cc(C(F)F)c1 (single isomer, unassigned) [Compound 54a]	0.01 to 0.05 µM
CC(Nc1nc(N)nc(N)c1C#N)c1nc2cc(F)c(F)cc2c(=O)n1-c1cc(F)cc(F)c1 (single isomer, unassigned) [Compound 79a]	0.01 to 0.05 µM
Cc1ccc(F)cc1-n1c(C(C)Nc2nc(N)nc(N)c2C#N)nc2cccc(Cl)c2c1=O (single isomer, unassigned) [Compound 201a-2]	0.001 to 0.01 µM

(Q) Fill in IC50 for record CC(Nc1nc(N)nc(N)c1C#N)c1nc2cccc(Cl)c2c(=O)n1-c1cc(C#N)cc(C#N)c1 (single isomer, unassigned) [Compound 87a]
(A) > 0.05 µM

(Q) Fill in IC50 for record COc1cccc2c(=O)n(-c3cc(F)cc(F)c3)c(C(C)Nc3nc(N)nc(N)c3C#N)nc12 (single isomer, unassigned) [Compound 68a]
(A) > 0.05 µM
